B1: TPR t1 (parent)
chain: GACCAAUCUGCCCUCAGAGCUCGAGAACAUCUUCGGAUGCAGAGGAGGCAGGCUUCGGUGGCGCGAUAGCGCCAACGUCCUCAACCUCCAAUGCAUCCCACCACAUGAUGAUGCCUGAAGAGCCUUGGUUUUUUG

variants of: B1; assay: polymerase ribozyme fitness, log enrichment relative to wild type (log ratio); higher = more active; in vitro selection for triplet polymerase activity
Label yes when polymerase ribozyme fitness (log ratio) is at or above -4; otherwise label no.

Exercise: Could you tell me if the measured polymerase ribozyme fitness (log ratio) of A6U A50G C123A G128C reaches -4 or more?
Key: yes

Exercise: Check if polymerase ribozyme fitness (log ratio) >= -4 (inclusive). Item: C3U G110U
Key: yes
